Measured IC50, listed per entry.
tested on: NCI/ADR-RES; experiment: Cytotoxicity against MCF-7/Adr cells.; type: functional, cell-based, Homo sapiens
PROPERTY NAME: IC50 (µg/mL)

COMPOUND: CCCCCCCCCCCC[C@H](O)[C@@H](O)CC[C@H](O)[C@@H]1CC[C@@H](CCC[C@H](O)[C@@H](O)CC[C@@H](O)CC2=C[C@H](C)OC2=O)O1
PROPERTY NAME: IC50
VALUE QUALIFIER: >
VALUE REPORTED: 1

COMPOUND: CCCCCCCCCCCC[C@@H](O)[C@H](O)CC[C@H](O)[C@@H]1CC[C@@H](CCC[C@H](O)[C@@H](O)CC[C@@H](O)CC2=C[C@H](C)OC2=O)O1
PROPERTY NAME: IC50
VALUE QUALIFIER: >
VALUE REPORTED: 1

COMPOUND: COc1cccc2c1C(=O)c1c(O)c3c(c(O)c1C2=O)C[C@@](O)(C(=O)CO)C[C@@H]3O[C@H]1C[C@H](N)[C@H](O)[C@H](C)O1
PROPERTY NAME: IC50
VALUE QUALIFIER: =
VALUE REPORTED: 5.37

COMPOUND: CCCCCCCCCCCC[C@@H](O)[C@H]1CC[C@H]([C@H]2CC[C@H]([C@H](O)CC[C@H](O)CCCCCCCCC3=C[C@H](C)OC3=O)O2)O1
PROPERTY NAME: IC50
VALUE QUALIFIER: =
VALUE REPORTED: 1.4

COMPOUND: CC[C@]1(O)C[C@@H]2CN(CCc3c([nH]c4ccccc34)[C@@](C(=O)OC)(c3cc4c(cc3OC)N(C)[C@H]3[C@@](O)(C(=O)OC)[C@H](OC(C)=O)[C@]5(CC)C=CCN6CC[C@]43[C@@H]65)C2)C1
PROPERTY NAME: IC50
VALUE QUALIFIER: =
VALUE REPORTED: 390

COMPOUND: CCCCCCCCCC[C@@H](O)[C@@H]1CC[C@@H]([C@@H]2CC[C@@H]([C@H](O)CCCCCCCCCC(O)CC3=CC(C)OC3=O)O2)O1 (some centres undefined)
PROPERTY NAME: IC50
VALUE QUALIFIER: =
VALUE REPORTED: 10.8

COMPOUND: CC[C@]1(O)C[C@H]2CN(CCc3c([nH]c4ccccc34)[C@@](C(=O)OC)(c3cc4c(cc3OC)N(C=O)[C@H]3[C@@](O)(C(=O)OC)[C@H](OC(C)=O)[C@]5(CC)C=CCN6CC[C@]43[C@@H]65)C2)C1
PROPERTY NAME: IC50
VALUE QUALIFIER: =
VALUE REPORTED: 2.93

COMPOUND: CCCCCCCCCCCC[C@@H](O)[C@H]1CC[C@H]([C@H]2CC[C@H]([C@H](O)CCCCCC[C@@H](O)CC3=C[C@H](C)OC3=O)O2)O1
PROPERTY NAME: IC50
VALUE QUALIFIER: >
VALUE REPORTED: 1

COMPOUND: CCCCCCCCCC[C@@H](O)[C@H]1CC[C@@H]([C@H]2CC[C@H]([C@H](O)CCCCCCCCCC[C@@H](O)CC3=C[C@H](C)OC3=O)O2)O1
PROPERTY NAME: IC50
VALUE QUALIFIER: =
VALUE REPORTED: 59.9
